Assay: Half life in ICR mouse at 30 mg/kg, ip measured after 24 hrs by LC-MS/MS analysis
Format: ADME, organism-based
Conditions: in vivo
MEASURED PROPERTY: half-life (h)
Supply the numeric figure in h, leaving out any unit text.

Dear colleague, I am looking for the recorded half-life of the following compound: C=CC(=O)N1CCN(c2nc(=O)n(-c3c(C)ccnc3C(C)C)c3nc(-c4c(O)cccc4F)c(F)cc23)[C@@H](C)C1
3.96

Follow-up item: C=CC(=O)N1CCN(c2nc(=O)n(-c3c(C)ccnc3C(C)C)c3nc(-c4c(F)cccc4OCC4CCN(CCCC(=O)N[C@H](C(=O)N5C[C@H](O)C[C@H]5C(=O)NCc5ccc(-c6scnc6C)cc5)C(C)(C)C)CC4)c(F)cc23)[C@@H](C)C1
3.87

====

# AUC(0-inf) per entry
Experiment: AUC (0 to infinity) in ICR mouse at 30 mg/kg, ip measured after 24 hrs by LC-MS/MS analysis
Type: ADME, organism-based
Details: in vivo
Supply the numeric figure in µg·h/mL, leaving out any unit text.

C=CC(=O)N1CCN(c2nc(=O)n(-c3c(C)ccnc3C(C)C)c3nc(-c4c(O)cccc4F)c(F)cc23)[C@@H](C)C1 [SOTORASIB] | 9.45

Now for a further compound.
Dear colleague, I am looking for the recorded AUC(0-inf) of the following compound: C=CC(=O)N1CCN(c2nc(=O)n(-c3c(C)ccnc3C(C)C)c3nc(-c4c(F)cccc4OCC4CCN(CCCC(=O)N[C@H](C(=O)N5C[C@H](O)C[C@H]5C(=O)NCc5ccc(-c6scnc6C)cc5)C(C)(C)C)CC4)c(F)cc23)[C@@H](C)C1
21.1

====

# Tmax per entry
Test: Tmax in ICR mouse at 30 mg/kg, ip measured after 24 hrs by LC-MS/MS analysis
Type: ADME, organism-based
Conditions: in vivo
Supply the numeric figure in min, leaving out any unit text.

C=CC(=O)N1CCN(c2nc(=O)n(-c3c(C)ccnc3C(C)C)c3nc(-c4c(O)cccc4F)c(F)cc23)[C@@H](C)C1 [SOTORASIB] | 15

Now for a further molecule.
Dear colleague, I am looking for the recorded Tmax of the following molecule: C=CC(=O)N1CCN(c2nc(=O)n(-c3c(C)ccnc3C(C)C)c3nc(-c4c(F)cccc4OCC4CCN(CCCC(=O)N[C@H](C(=O)N5C[C@H](O)C[C@H]5C(=O)NCc5ccc(-c6scnc6C)cc5)C(C)(C)C)CC4)c(F)cc23)[C@@H](C)C1
70.2

====

Experiment: AUC (0 to t) in ICR mouse at 30 mg/kg, ip measured after 24 hrs by LC-MS/MS analysis
Assay type: ADME, organism-based
Conditions: in vivo
# AUC(0-t) at 24 h per entry
Supply the numeric figure in ng·h/mL, leaving out any unit text.

C=CC(=O)N1CCN(c2nc(=O)n(-c3c(C)ccnc3C(C)C)c3nc(-c4c(F)cccc4OCC4CCN(CCCC(=O)N[C@H](C(=O)N5C[C@H](O)C[C@H]5C(=O)NCc5ccc(-c6scnc6C)cc5)C(C)(C)C)CC4)c(F)cc23)[C@@H](C)C1 | 21000

Now for a further compound.
Dear colleague, I am looking for the recorded AUC(0-t) at 24 h of the following compound: C=CC(=O)N1CCN(c2nc(=O)n(-c3c(C)ccnc3C(C)C)c3nc(-c4c(O)cccc4F)c(F)cc23)[C@@H](C)C1
9440
